biological target: HIV-1 Env of isolate 94UG103 (HIV-1); experiment: cell-based or functional assay

{"binder": "PGT-123 (antibody, V domains shown) VH: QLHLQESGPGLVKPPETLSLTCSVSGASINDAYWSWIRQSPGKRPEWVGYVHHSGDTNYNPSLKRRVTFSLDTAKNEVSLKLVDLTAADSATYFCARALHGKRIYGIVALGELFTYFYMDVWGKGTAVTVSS VL: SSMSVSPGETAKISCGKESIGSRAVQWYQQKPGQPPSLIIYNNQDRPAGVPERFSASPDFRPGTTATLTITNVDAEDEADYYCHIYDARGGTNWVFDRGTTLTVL", "IC50 (µg/mL), pseudovirus neutralization": "0.678 µg/mL"}
{"binder": "PGT-125 (antibody, V domains shown) VH: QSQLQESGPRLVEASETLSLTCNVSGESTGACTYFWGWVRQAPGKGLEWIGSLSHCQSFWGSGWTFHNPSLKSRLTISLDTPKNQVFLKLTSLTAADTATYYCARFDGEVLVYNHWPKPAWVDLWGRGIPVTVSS VL: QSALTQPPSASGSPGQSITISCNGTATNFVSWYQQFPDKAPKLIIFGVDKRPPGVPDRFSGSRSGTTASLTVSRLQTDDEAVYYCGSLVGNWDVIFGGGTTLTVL", "IC50 (µg/mL), pseudovirus neutralization": "0.008 µg/mL"}
{"binder": "PGT-127 (antibody, V domains shown) VH: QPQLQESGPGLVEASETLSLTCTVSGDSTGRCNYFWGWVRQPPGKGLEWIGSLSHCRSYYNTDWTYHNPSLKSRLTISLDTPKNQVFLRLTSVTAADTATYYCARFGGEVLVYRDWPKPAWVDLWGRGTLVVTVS VL: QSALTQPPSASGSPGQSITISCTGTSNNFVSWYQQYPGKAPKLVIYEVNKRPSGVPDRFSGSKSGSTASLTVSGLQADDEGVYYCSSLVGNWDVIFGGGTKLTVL", "IC50 (µg/mL), pseudovirus neutralization": "0.017 µg/mL"}
{"binder": "PGT-126 (antibody, V domains shown) VH: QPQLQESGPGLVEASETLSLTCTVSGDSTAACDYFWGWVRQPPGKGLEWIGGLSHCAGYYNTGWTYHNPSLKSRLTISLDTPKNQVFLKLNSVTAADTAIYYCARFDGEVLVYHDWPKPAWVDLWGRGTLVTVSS VL: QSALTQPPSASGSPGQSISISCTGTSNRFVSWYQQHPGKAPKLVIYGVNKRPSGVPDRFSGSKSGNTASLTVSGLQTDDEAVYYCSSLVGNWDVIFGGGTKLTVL", "IC50 (µg/mL), pseudovirus neutralization": "0.008 µg/mL"}

All figures here come from patent US20200024330A1.
